- Species on record: Cavia porcellus
- experiment notes: Evaluated for the percent efficacy in guinea pig ileum contraction model
- Type: functional
measured parameter: Efficacy (%)
Unit % implied. Number only.

Some molecules with recorded Efficacy:
> print(dat)
                           molecule  measured.number
1   COC(=O)C1CC2CC1N(C)C2 (racemic)               58
2   COC(=O)C1=CCCN(C)C1 [ARECOLINE]              100
3      COC(=O)C1CC2CNC1C2 (racemic)               91
4  COC(=O)[C@@H]1C[C@H]2CN[C@@H]1C2              120
5   COC(=O)[C@H]1C[C@@H]2CN[C@H]1C2               94

// next item, Efficacy requested
May I ask what Efficacy has been recorded for `COC(=O)[C@H]1C[C@H]2C[C@@H]1N(C)C2` ? 68
